Below: a set of entries, each annotated with reported RS ratio.
# Target Of Assay: GST fusion P171H/W548L mutant ALS protein (Oryza sativa subsp. japonica, UniProt Q6K2E8, P171H/W548L)
# Construct: made in house; host or cells: E. coli, pGEX-2T(ALS-P171H, W548L mutant); crude supernatant
# Sequence (Q6K2E8 44-644 P171H/W548L): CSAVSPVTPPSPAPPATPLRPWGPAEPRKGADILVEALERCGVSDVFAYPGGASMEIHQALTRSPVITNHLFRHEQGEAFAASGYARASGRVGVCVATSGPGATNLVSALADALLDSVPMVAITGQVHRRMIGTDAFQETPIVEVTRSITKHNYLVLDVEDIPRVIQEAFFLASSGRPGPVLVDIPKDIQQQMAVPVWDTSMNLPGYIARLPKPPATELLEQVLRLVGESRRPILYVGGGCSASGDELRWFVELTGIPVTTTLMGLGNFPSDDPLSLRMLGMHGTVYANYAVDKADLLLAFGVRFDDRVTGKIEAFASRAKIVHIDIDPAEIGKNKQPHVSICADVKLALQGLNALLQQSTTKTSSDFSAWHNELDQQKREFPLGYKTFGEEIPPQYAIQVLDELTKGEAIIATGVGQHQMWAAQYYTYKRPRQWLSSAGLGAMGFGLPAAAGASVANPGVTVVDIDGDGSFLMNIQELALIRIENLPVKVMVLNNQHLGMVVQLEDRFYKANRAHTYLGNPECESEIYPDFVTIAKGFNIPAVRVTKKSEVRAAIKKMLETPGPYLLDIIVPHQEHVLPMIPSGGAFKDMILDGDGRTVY
# Test Name: Herbicide sensitivity of ALS protein expressed in E. coli (crude enzyme solution), P171H/W548L
# Type: biochemical, rice (Oryza sativa var. Kinmaze)
# Assay Setup: P171H/W548L mutant vs wild type

Molecule: CC(C)C1(C)N=C(c2nc3ccccc3cc2C(=O)O)NC1=O (centres unmarked) [imazaquin]
RS ratio: >45
//
Molecule: CON=C(C)c1cccc(Oc2nc(OC)cc(OC)n2)c1C(=O)O [pyriminobac]
RS ratio: >13000
//
Molecule: COc1cc(OC)nc(Oc2cccc(Oc3nc(OC)cc(OC)n3)c2C(=O)O)n1 [bispyribac-sodium]
RS ratio: >15000
//
Molecule: COc1nc(C)nc(NC(=O)NS(=O)(=O)c2ccccc2Cl)n1 [chlorsulfuron]
RS ratio: >7700

Attention now shifts to the item below.
Incoming: Tell me the measured RS ratio of COc1cc(OC)nc(Sc2cccc(Cl)c2C(=O)O)n1 [pyrithiobac-sodium] , please.
Outgoing: >9100

----------
# Target Of Assay: GST fusion P171H/S627I mutant ALS protein (Oryza sativa subsp. japonica, UniProt Q6K2E8, P171H/S627I)
# Construct: crude supernatant
# Sequence (Q6K2E8 44-644 P171H/S627I): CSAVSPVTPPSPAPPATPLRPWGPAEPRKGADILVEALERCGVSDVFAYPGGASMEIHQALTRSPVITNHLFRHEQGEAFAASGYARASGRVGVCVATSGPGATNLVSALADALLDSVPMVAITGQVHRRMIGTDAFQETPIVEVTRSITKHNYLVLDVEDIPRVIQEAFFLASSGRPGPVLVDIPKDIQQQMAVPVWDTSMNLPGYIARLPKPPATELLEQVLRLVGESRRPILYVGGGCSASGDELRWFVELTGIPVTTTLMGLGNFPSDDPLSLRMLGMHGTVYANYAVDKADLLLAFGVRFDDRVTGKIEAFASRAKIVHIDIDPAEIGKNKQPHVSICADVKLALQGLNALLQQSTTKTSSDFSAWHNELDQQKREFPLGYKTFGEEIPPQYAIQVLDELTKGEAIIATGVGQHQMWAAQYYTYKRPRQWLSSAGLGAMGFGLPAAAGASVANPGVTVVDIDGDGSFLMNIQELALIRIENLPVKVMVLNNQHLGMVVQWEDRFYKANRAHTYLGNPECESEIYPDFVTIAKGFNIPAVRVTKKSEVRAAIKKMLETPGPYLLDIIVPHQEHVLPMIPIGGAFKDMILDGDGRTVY
# Test Name: Herbicide sensitivity of ALS protein expressed in E. coli (crude enzyme solution), P171H/S627I
# Method: ALS activity resulting from the mutant ALS protein contained in the eluted fractions apportioned into each test tube for apportioning was measured as follows. A reaction solution to be used in a measurement reaction was prepared by mixing an eluted fraction to be measured with a solution comprising 20 mM sodium pyruvate, 0.5 mM TPP, 0.5 mM MgCl2, 10 μM FAD and 20 mM potassium phosphate buffer (pH 7.5). One ml of this reaction solution was used. […]
Below: a set of entries, each annotated with reported pIC50.
The quantity pIC50 is defined as the negative base-10 logarithm of the molar concentration.

Compound: COc1nc(C)nc(NC(=O)NS(=O)(=O)c2ccccc2Cl)n1 [chlorsulfuron]
pIC50: 5.00

Compound: COc1cc(OC)nc(Oc2cccc(Oc3nc(OC)cc(OC)n3)c2C(=O)O)n1 [bispyribac-sodium]
pIC50: 4.64

Compound: COc1cc(OC)nc(Sc2cccc(Cl)c2C(=O)O)n1 [pyrithiobac-sodium]
pIC50: 5.03

Attention now shifts to the item below.
Incoming: Tell me the measured pIC50 of CC(C)C1(C)N=C(c2nc3ccccc3cc2C(=O)O)NC1=O (stereo not shown) [imazaquin] , please.
Outgoing: 4.15

----------
# Target Of Assay: GST fusion P171H/R172S mutant ALS protein (Oryza sativa subsp. japonica, UniProt Q6K2E8, P171H/R172S)
# Construct: made in house; host or cells: E. coli JM109, pGEX-2T(ALS P171H, R172S mutant); crude supernatant
# Sequence (Q6K2E8 44-644 P171H/R172S): as the sequence (Q6K2E8 44-644 P171H/W548L) above, with R129S, L505W counted along it
# Test Name: Herbicide sensitivity of ALS protein expressed in E. coli (crude enzyme solution), P171H/R172S
# Type: biochemical, rice (Oryza sativa var. Kinmaze)
# Assay Setup: P171H/R172S mutant
Property Label: RS ratio/ predicted RS ratio
Hey, just send me the number, nothing else.

Please review the entries below; each comes with its answer.
Molecule: COc1cc(OC)nc(Sc2cccc(Cl)c2C(=O)O)n1 [pyrithiobac-sodium]
RS ratio/ predicted RS ratio: 3.8

Molecule: COc1cc(OC)nc(Oc2cccc(Oc3nc(OC)cc(OC)n3)c2C(=O)O)n1 [bispyribac-sodium]
RS ratio/ predicted RS ratio: 0.89

Molecule: CC(C)C1(C)N=C(c2nc3ccccc3cc2C(=O)O)NC1=O (centres unmarked)
RS ratio/ predicted RS ratio: 1.2

Molecule: COc1nc(C)nc(NC(=O)NS(=O)(=O)c2ccccc2Cl)n1
RS ratio/ predicted RS ratio: 5.8

Attention now shifts to the item below.
Incoming: Tell me the measured RS ratio/ predicted RS ratio of `CON=C(C)c1cccc(Oc2nc(OC)cc(OC)n2)c1C(=O)O` , please.
Outgoing: 0.85
